# Method Description: Long-term stability in spiked pooled human plasma
# Run Conditions: validation standard LLOV
The entries below are paired with their reported Long-term stability, 2 month, -20°C Accuracy [%].
Reported Endpoint: Long-term stability, 2 month, -20°C Accuracy [%] (%)

Molecule	Reported Measurement
O=C(c1cc(Cc2n[nH]c(=O)c3ccccc23)ccc1F)N1CCN(C(=O)C2CC2)CC1 [Olaparib]	115.9
CC(C)(C)c1nc(-c2cccc(NS(=O)(=O)c3c(F)cccc3F)c2F)c(-c2ccnc(N)n2)s1 [Dabrafenib]	99.0
CS(=O)(=O)c1ccc(C(=O)Nc2ccc(Cl)c(-c3ccccn3)c2)c(Cl)c1 [Vismodegib]	94.1
O=C(Nc1cnn2ccc(N3CCC[C@@H]3c3cc(F)ccc3F)nc12)N1CC[C@H](O)C1 [Larotrectinib]	103.5
C[C@]12CC[C@H](O)CC1=CC[C@@H]1[C@@H]2CC[C@]2(C)C(c3cccnc3)=CC[C@@H]12 [Abiraterone]	97.0
O=C1CN2Cc3c(ccc(Cl)c3Cl)N=C2N1 [Anagrelide]	128.7
Nc1cccc2c1C(=O)N(C1CCC(=O)NC1=O)C2=O (stereo not drawn) [Pomalidomide]	95.9
COc1cc2c(Nc3ccc(Br)cc3F)ncnc2cc1OCC1CCN(C)CC1 [Vandetanib]	97.5
CCC1=C[C@@H]2CN(C1)Cc1c([nH]c3ccccc13)[C@@](C(=O)OC)(c1cc3c(cc1OC)N(C)[C@H]1[C@@](O)(C(=O)OC)[C@H](OC(C)=O)[C@]4(CC)C=CCN5CC[C@]31[C@@H]54)C2 [Vinorelbine]	98.1

---

# Method Description: Short-term stability in spiked pooled human plasma (bench-top, 4 °C, 56 °C)
# Run Conditions: validation standard MOV
Reported Endpoint: Short-time stability (24h, RT, without daylight) Accuracy [%] (%)

>>> print(df.to_string())
                                    compound  reported_measurement
 0  Cc1ccc(NC(=O)c2ccc(CN3CCN(C)CC3)cc2)cc1Nc1nccc(-c2cccnc2)n1                  88.6
 1  Cc1[nH]c2ccccc2c1CCNCc1ccc(/C=C/C(=O)NO)cc1                  96.2
 2  CC1(C)CCC(CN2CCN(c3ccc(C(=O)NS(=O)(=O)c4ccc(NCC5CCOCC5)c([N+](=O)[O-])c4)c(Oc4cnc5[nH]ccc5c4)c3)CC2)=C(c2ccc(Cl)cc2)C1                  98.0
 3  COC(=O)c1ccc2c(c1)NC(=O)/C2=C(\Nc1ccc(N(C)C(=O)CN2CCN(C)CC2)cc1)c1ccccc1                 103.0
 4  CN(C)C/C=C/C(=O)Nc1cc2c(Nc3ccc(F)c(Cl)c3)ncnc2cc1O[C@H]1CCOC1                  91.4
 5  COc1cc2nccc(Oc3ccc(NC(=O)Nc4cc(C)on4)c(Cl)c3)c2cc1OC                 105.8
 6  COc1cc2nccc(Oc3ccc(NC(=O)NC4CC4)c(Cl)c3)c2cc1C(N)=O                  94.3
 7  CNCc1ccc(-c2[nH]c3cc(F)cc4c3c2CCNC4=O)cc1                 102.1
 8  N#CC[C@H](C1CCCC1)n1cc(-c2ncnc3[nH]ccc23)cn1                 102.2
 9  Cc1c(C(=O)Nc2ccc(N3C[C@@H](C)O[C@@H](C)C3)nc2)cccc1-c1ccc(OC(F)(F)F)cc1                  94.7
10  CS(=O)(=O)CCNCc1ccc(-c2ccc3ncnc(Nc4ccc(OCc5cccc(F)c5)c(Cl)c4)c3c2)o1                 109.4
11  COc1cc2ncnc(Nc3ccc(F)c(Cl)c3)c2cc1NC(=O)/C=C/CN1CCCCC1                  91.1
12  CNC(=O)c1ccc(N2C(=S)N(c3cnc(C#N)c(C(F)(F)F)c3)C(=O)C23CCC3)cc1F [Apalutamide]                  75.2
13  C[C@H]1Oc2cc(cnc2N)-c2c(nn(C)c2C#N)CN(C)C(=O)c2ccc(F)cc21                  99.2
14  O=C(c1cc(Cc2n[nH]c(=O)c3ccccc23)ccc1F)N1CCN(C(=O)C2CC2)CC1                  88.9
15  COc1cc2c(Nc3ccc(Br)cc3F)ncnc2cc1OCC1CCN(C)CC1                  95.1
16  CNC(=O)c1ccc(N2C(=S)N(c3ccc(C#N)c(C(F)(F)F)c3)C(=O)C2(C)C)cc1F [Enzalutamide]                 107.8
17  CNC(=O)c1ccccc1Sc1ccc2c(/C=C/c3ccccn3)n[nH]c2c1                  99.3
18  Cn1cnc2c(F)c(Nc3ccc(Br)cc3F)c(C(=O)NOCCO)cc21                  89.2
19  CN(C)C(=O)c1cc2cnc(Nc3ccc(N4CCNCC4)cn3)nc2n1C1CCCC1                  93.5
20  CCN(CC)CCNC(=O)c1c(C)[nH]c(/C=C2\C(=O)Nc3ccc(F)cc32)c1C                  86.7
21  Cc1cn(-c2cc(NC(=O)c3ccc(C)c(Nc4nccc(-c5cccnc5)n4)c3)cc(C(F)(F)F)c2)cn1                 114.5
22  O=c1[nH]c(=O)n([C@H]2C[C@H](O)[C@@H](CO)O2)cc1C(F)(F)F                  75.3
23  CS(=O)(=O)c1ccc(C(=O)Nc2ccc(Cl)c(-c3ccccn3)c2)c(Cl)c1                 114.6
24  Cc1cc(Nc2ncc(Cl)c(Nc3ccccc3S(=O)(=O)C(C)C)n2)c(OC(C)C)cc1C1CCNCC1                  92.2
25  CCCS(=O)(=O)Nc1ccc(F)c(C(=O)c2c[nH]c3ncc(-c4ccc(Cl)cc4)cc23)c1F                  92.1
26  Nc1cccc2c1CN(C1CCC(=O)NC1=O)C2=O (centres unmarked) [Lenalidomide]                  54.1
27  CNC(=O)c1cc(Oc2ccc(NC(=O)Nc3ccc(Cl)c(C(F)(F)F)c3)c(F)c2)ccn1                  90.8
28  O=C1CN2Cc3c(ccc(Cl)c3Cl)N=C2N1 [Anagrelide]                  88.7
29  Cc1ccc(Nc2nccc(N(C)c3ccc4c(C)n(C)nc4c3)n2)cc1S(N)(=O)=O                 101.2
30  CC(=O)Nc1cccc(-n2c(=O)n(C3CC3)c(=O)c3c(Nc4ccc(I)cc4F)n(C)c(=O)c(C)c32)c1                  99.7
31  C[C@@H](Oc1cc(-c2cnn(C3CCNCC3)c2)cnc1N)c1c(Cl)ccc(F)c1Cl                  99.8

---

# Method Description: Long-term stability in spiked pooled human plasma
# Run Conditions: validation standard 2xLLOV
Reported Endpoint: Long-term stability, 1 month, -80°C Accuracy [%] (%)

>>> df
                                   compound  units_text  reported_measurement
0  O=C(c1cc(Cc2n[nH]c(=O)c3ccccc23)ccc1F)N1CCN(C(=O)C2CC2)CC1 [Olaparib]           %                  98.2
1  CC(C)(C)c1nc(-c2cccc(NS(=O)(=O)c3c(F)cccc3F)c2F)c(-c2ccnc(N)n2)s1 [Dabrafenib]           %                  93.1
2  Cc1ccc(Nc2nccc(N(C)c3ccc4c(C)n(C)nc4c3)n2)cc1S(N)(=O)=O [Pazopanib]           %                  95.8
3  Cc1c(C(=O)Nc2ccc(N3C[C@@H](C)O[C@@H](C)C3)nc2)cccc1-c1ccc(OC(F)(F)F)cc1 [Sonidegib]           %                 108.9

---

# Method Description: Autosampler stability of ready for injection samples
# Assay type: physicochemical, human
# Run Conditions: validation standard 2xLLOV
Reported Endpoint: Autosampler (24h, 4°C) Accuracy [%] (%)

In [3]: df
Out[3]:
                                   compound                    reported_endpoint  units_text  reported_measurement
0  C#Cc1cccc(Nc2ncnc3cc(OCCOC)c(OCCOC)cc23)c1  Autosampler (24h, 4°C) Accuracy [%]           %                 102.3
1  COc1cc2ncnc(Nc3ccc(F)c(Cl)c3)c2cc1OCCCN1CCOCC1  Autosampler (24h, 4°C) Accuracy [%]           %                 102.3
2  CNC(=O)c1ccc(N2C(=S)N(c3cnc(C#N)c(C(F)(F)F)c3)C(=O)C23CCC3)cc1F [Apalutamide]  Autosampler (24h, 4°C) Accuracy [%]           %                 102.1
3  CCN1CCN(Cc2ccc(Nc3ncc(F)c(-c4cc(F)c5nc(C)n(C(C)C)c5c4)n3)nc2)CC1  Autosampler (24h, 4°C) Accuracy [%]           %                  99.5
4  NC(=O)c1cccc2cn(-c3ccc([C@@H]4CCCNC4)cc3)nc12  Autosampler (24h, 4°C) Accuracy [%]           %                 103.0
5  CN(C)C(=O)c1cc2cnc(Nc3ccc(N4CCNCC4)cn3)nc2n1C1CCCC1  Autosampler (24h, 4°C) Accuracy [%]           %                 103.0
6  Cc1ccc(Nc2nccc(N(C)c3ccc4c(C)n(C)nc4c3)n2)cc1S(N)(=O)=O  Autosampler (24h, 4°C) Accuracy [%]           %                 103.7
